Answer each item with its documented IC50.
Target: UniProt P30561
Sequence (P30561 1-848 P471L/N533S/M589L): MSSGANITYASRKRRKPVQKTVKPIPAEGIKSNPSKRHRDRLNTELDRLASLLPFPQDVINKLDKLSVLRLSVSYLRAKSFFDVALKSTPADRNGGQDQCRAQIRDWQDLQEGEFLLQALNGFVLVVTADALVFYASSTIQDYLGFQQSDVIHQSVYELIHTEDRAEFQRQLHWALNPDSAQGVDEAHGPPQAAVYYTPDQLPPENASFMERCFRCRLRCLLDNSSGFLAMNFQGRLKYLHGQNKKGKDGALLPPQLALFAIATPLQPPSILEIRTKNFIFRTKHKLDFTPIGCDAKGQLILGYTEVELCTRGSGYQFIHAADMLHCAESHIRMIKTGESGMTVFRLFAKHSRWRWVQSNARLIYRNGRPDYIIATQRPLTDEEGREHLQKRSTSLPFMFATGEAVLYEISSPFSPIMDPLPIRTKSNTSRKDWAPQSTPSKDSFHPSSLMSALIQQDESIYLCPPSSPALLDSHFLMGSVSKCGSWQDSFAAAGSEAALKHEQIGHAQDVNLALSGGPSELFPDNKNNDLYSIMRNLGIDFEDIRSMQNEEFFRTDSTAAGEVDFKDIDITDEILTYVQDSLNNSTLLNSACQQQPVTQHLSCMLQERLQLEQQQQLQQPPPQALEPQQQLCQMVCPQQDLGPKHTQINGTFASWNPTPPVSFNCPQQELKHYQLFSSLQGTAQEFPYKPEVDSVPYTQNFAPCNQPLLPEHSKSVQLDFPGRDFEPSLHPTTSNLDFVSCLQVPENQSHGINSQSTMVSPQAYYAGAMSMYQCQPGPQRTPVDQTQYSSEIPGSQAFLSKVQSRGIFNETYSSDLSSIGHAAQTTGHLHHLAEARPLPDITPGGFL
Experiment: In vitro assay 3: antagonism in mouse cell line (AHR transactivation, firefly luciferase reporter, kynurenic acid prestimulated)
Format: cell-based
Settings: mouse Hepa 1c1c7 cells, 200 μM kynurenic acid, 20 hours, read-out: AHR Antagonism Mouse IC50

*Q* // IC50 lookup, key: O=C1NCCNC[C@H]1Nc1nc2c(F)cccc2c2nc(-c3ccc(F)cc3)nn12
*A* 3.16 nM

*Q* And for COC(=O)[C@H](Nc1nc2ccccc2c2nc(-c3cccc(OC)c3)nn12)C(C)C ?
*A* 2.43 nM

*Q* And for O=C1NCCNCC1Nc1nc2cccc(Cl)c2c2nc(-c3ccc(F)cc3)nn12 (single isomer, unassigned) [Example 299] ?
*A* 37.3 nM

*Q* And for CS(=O)(=O)c1ccc(-c2nc3c4ccccc4nc(N[C@@H]4CCCCNC4=O)n3n2)cc1 ?
*A* 1.73 nM

Origin of measurements: patent US20230113037A1
